procedure.details: Stability following incubation with DU145 cells
Assay type: in vitro ADME, human
reported.conditions: human, DU145 cells, Table 1, read-out: Stability (% remaining after 48 h)
Numbered stars: 1 amine (or outer) side, 2 acyl side, 3 side chain; on linkers, the order of the positions; unused ones are H or OH. Square brackets hold non-standard residues; d marks the D form. Peptide text beside a SMILES is read from it. * marks the point of attachment. X3 = CC(C)C[C@H](N[*:1])c1cn([C@@H](CC(C)C)C(=O)[*:2])nn1; PEG8 = NCCOCCOCCOCCOCCOCCOCCOCCOCCC(=O)O; X2 = N=C(N)NC/C=C/CN*
value.kind: remaining at 48 h (%)
Numbers only, in %.

Kindly give each listed record's remaining at 48 h.
1. CC(=O)NN(CC(=O)N[C@@H](CC(C)C)C(=O)N[C@@H](CC(C)C)C(=O)N[C@@H](CC(C)C)C(=O)N[C@@H](CCCNC(=N)N)C(=O)N[C@H](C(=O)N[C@@H](CCCCN)C(=O)N[C@@H](CCCNC(=N)N)C(N)=O)C(C)C)CC(C)C [ML[Azaβ3L]^P8]
2. CC(=O)N[C@@H](CC(C)C)c1cn([C@@H](CC(C)C)C(=O)N[C@@H](CC(C)C)C(=O)N[C@@H](CC(C)C)C(=O)N[C@@H](CCCNC(=N)N)C(=O)N[C@H](C(=O)N[C@@H](CCCCN)C(=O)N[C@@H](CCCNC(=N)N)C(N)=O)C(C)C)nn1 [ML[click]^P8-P7, Ac-L[click]LLLRVKR-NH2] (Ac-[X3]LLRVKR-NH2)

1. 83
2. 52

Kindly give each listed record's remaining at 48 h.
1. CC(=O)N[C@H](CC(C)C)C(=O)N[C@@H](CC(C)C)C(=O)N[C@@H](CC(C)C)C(=O)N[C@@H](CC(C)C)C(=O)N[C@@H](CCCNC(=N)N)C(=O)N[C@H](C(=O)N[C@@H](CCCCN)C(=O)N[C@@H](CCCNC(=N)N)C(N)=O)C(C)C [[D-Leu]^P8-ML, Ac-[D-Leu]-LLLRVKR-NH2]
2. CCCC[C@H](NC(C)=O)C(=O)N[C@@H](CCCC)C(=O)N[C@@H](CC(C)C)C(=O)N[C@@H](CCCC)C(=O)N[C@@H](CCCN=C(N)N)C(=O)N[C@H](C(=O)N[C@@H](CCCCN)C(=O)N[C@@H](CCCN=C(N)N)C(N)=O)C(C)C [ML[Nle]^P5-6-8, Ac-[Nle][Nle]L[Nle]RVKR-NH2]
3. CC(=O)NCCOCCOCCOCCOCCOCCOCCOCCOCCC(=O)N[C@@H](CC(C)C)C(=O)N[C@@H](CC(C)C)C(=O)N[C@@H](CC(C)C)C(=O)N[C@@H](CC(C)C)C(=O)N[C@@H](CCCNC(=N)N)C(=O)N[C@H](C(=O)N[C@@H](CCCCN)C(=O)N[C@@H](CCCNC(=N)N)C(N)=O)C(C)C [[H2N-PEG8]-ML, Ac-[HN-PEG8]-LLLLRVKR-NH2] (Ac-[PEG8]LLLLRVKR-NH2)
4. CC(=O)N[C@@H](CC(C)C)C(=O)N[C@@H](CC(C)C)C(=O)N[C@@H](CC(C)C)C(=O)N[C@@H](CC(C)C)C(=O)N[C@@H](CCCNC(=N)N)C(=O)N[C@H](C(=O)N[C@@H](CCCCN)C(=O)NC/C=C/CNC(=N)N)C(C)C [ML-[ΔR-CO2]^P1, Ac-LLLLRVK-[ΔR-COO]] (Ac-LLLLRVK-X2)

[48, 41, 64, 70]

# credit: patent US9809621B2
